Attribution: patent US20250382297A1

Target: FGFR2 (Homo sapiens (Human), UniProt P21802)
Sequence (P21802 22-821): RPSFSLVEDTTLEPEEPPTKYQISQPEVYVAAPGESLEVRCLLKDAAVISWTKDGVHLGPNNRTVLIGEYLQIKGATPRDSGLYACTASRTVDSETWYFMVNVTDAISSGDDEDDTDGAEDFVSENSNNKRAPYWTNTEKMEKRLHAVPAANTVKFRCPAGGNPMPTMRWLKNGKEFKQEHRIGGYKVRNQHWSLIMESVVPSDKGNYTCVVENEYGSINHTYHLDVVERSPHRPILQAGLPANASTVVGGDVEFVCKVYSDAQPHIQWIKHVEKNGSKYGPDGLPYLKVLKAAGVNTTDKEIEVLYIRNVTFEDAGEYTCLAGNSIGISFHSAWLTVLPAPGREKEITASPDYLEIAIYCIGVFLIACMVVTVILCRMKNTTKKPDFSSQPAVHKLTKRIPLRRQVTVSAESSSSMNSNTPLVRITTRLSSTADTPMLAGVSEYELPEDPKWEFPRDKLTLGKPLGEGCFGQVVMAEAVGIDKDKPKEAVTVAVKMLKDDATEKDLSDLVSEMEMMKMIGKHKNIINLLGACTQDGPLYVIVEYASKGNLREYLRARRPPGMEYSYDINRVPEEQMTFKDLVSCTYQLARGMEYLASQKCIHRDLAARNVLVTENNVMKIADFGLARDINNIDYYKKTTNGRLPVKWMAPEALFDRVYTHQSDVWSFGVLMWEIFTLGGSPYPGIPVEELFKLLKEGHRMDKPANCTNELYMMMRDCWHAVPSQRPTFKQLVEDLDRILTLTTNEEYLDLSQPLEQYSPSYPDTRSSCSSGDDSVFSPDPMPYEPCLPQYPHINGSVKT
Test: FGFR biochemical assay (LanthaScreen TR-FRET kinase assay), FGFR2
pIC50: −log10 of the molar value.

{"columns": ["smiles", "pIC50"],
 "data": [
  ["C=CC(=O)Nc1ccc(-c2c(-c3ccc(C(=O)N4CC5(CCC5)C4)cc3)c(C(N)=O)c3cnccn23)cc1", "7.00 to 8.00"],
  ["C=CC(=O)Nc1ccc(-c2c(-c3ccc(Oc4nccc(C)n4)cc3)c(C(N)=O)c3cnc(C)cn23)cc1OC", "7.00 to 8.00"],
  ["C=CC(=O)Nc1cc(C)c(-c2c(-c3ccc(Oc4cccc(C)n4)cc3)c(C(N)=O)c3cnccn23)cn1", "7.00 to 8.00"],
  ["C=CC(=O)Nc1ccc(-c2c(-c3ccc(Oc4cccc(C)n4)cc3)c(C(N)=O)c3cnc(CN(C)C)cn23)cc1", "7.00 to 8.00"],
  ["C=C(F)C(=O)Nc1ccc(-c2c(-c3ccc(Oc4nccc(C)n4)c(F)c3)c(C(N)=O)c3ccc(C)nn23)cc1", "7.00 to 8.00"],
  ["C=C(F)C(=O)Nc1ccc(-c2c(-c3ccc(Oc4nccc(C)n4)cc3)c(C(N)=O)c3cnc(C(F)(F)F)cn23)cc1", "7.00 to 8.00"],
  ["C=C(F)C(=O)Nc1ccc(-c2c(-c3ccc(Oc4ncc(F)c(C)n4)c(F)c3)c(C(N)=O)c3cnc(C)cn23)cc1", "7.00 to 8.00"]
]}
